Just for reference, patent US20120165304A1 is where these values come from.

- target: human 5-HT2C receptor (Homo sapiens, UniProt P28335, I156V/I160V/N158S)
- Sequence (P28335 33-458 I156V/N158S/I160V limits assumed): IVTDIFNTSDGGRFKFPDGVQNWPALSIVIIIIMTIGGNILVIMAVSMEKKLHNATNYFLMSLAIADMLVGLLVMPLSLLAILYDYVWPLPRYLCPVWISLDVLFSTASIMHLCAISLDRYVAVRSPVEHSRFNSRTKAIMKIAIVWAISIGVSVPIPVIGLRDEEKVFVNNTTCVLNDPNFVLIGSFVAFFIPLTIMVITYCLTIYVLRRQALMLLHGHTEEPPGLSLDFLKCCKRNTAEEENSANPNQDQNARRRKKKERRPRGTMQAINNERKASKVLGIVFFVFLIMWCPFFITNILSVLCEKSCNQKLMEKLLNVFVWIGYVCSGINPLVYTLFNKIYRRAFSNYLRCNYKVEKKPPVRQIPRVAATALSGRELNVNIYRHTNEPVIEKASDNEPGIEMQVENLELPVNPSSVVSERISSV
- assayNotes: cell-based
measuredAttribute: EC50 (nM)
Supply the numeric figure in nM, leaving out any unit text.

Recorded EC50, per entry:
{"compound": "CN1CCc2nc3ccnn3c(N3CC(C(=O)NC4CCCC(C(F)(F)F)C4)C3)c2CC1 (stereo not drawn)", "unitInfo": "nM", "EC50": 87}
{"compound": "O=C(C1CN(c2c3c(nc4c(Br)cnn24)CCNCC3)C1)N1CCC2(CCOC2)CC1", "unitInfo": "nM", "EC50": 71}
{"compound": "CN(Cc1ccc(Cl)c(Cl)c1)C(=O)C1CN(c2c3c(nc4ccnn24)CCNCC3)C1", "unitInfo": "nM", "EC50": 33}

// recorded EC50 for CCN(Cc1ccccc1)C(=O)C1CN(c2c3c(nc4ccnn24)CCNCC3)C1 : 346

// recorded EC50 for O=C(NC1CCC1)C1CN(c2c3c(nc4ccnn24)CCNCC3)C1 : 161

// recorded EC50 for O=C(C1CN(c2c3c(nc4ccnn24)CCNCC3)C1)N1CCN2CCCC2C1 (stereo not drawn) : 3

// recorded EC50 for CCN1CCN(C(=O)C2CN(c3c4c(nc5ccnn35)CCNCC4)C2)CC1 : 3

// recorded EC50 for FC(F)(F)Oc1ccccc1OC1CN(c2c3c(nc4ccnn24)CCNCC3)C1 : 636

// recorded EC50 for O=C(Nc1ccccc1)C1CN(c2c3c(nc4ccnn24)CCNCC3)C1 : 2390

// recorded EC50 for CN1CCc2nc3ccnn3c(N3CC(C(=O)N4CCN(CC5CC5)CC4)C3)c2CC1 : 77

// recorded EC50 for Cc1ccc(CN(C)C(=O)C2CN(c3c4c(nc5ccnn35)CCNCC4)C2)cc1 : 51

// recorded EC50 for CN(Cc1ccccn1)C(=O)C1CN(c2c3c(nc4ccnn24)CCNCC3)C1 : 87

---

- target: human 5-HT2C receptor (Homo sapiens, UniProt P28335, I156V/I160V/N158S)
- assayNotes: cell-based
measuredAttribute: EC50 (nM)
Supply the numeric figure in nM, leaving out any unit text.

Recorded EC50, per entry:
{"compound": "CCC1CCN(C(=O)C2CN(c3c4c(nc5ccnn35)CCNCC4)C2)CC1 [Example 31.68]", "target": "human 5-HT2C receptor (Homo sapiens, UniProt P28335, I156V/I160V/N158S)", "EC50 [nM]": 46}
{"compound": "O=C(C1CN(c2c3c(nc4ccnn24)CCNCC3)C1)N1CCCNCC1 [Example 37.6]", "target": "human 5-HT2C receptor (Homo sapiens, UniProt P28335, I156V/I160V/N158S)", "EC50 [nM]": 2}
{"compound": "O=C(C1CN(c2c3c(nc4ccnn24)CCNCC3)C1)N1CCC(C(F)(F)F)C1 (stereo not drawn) [Example 31.95]", "target": "human 5-HT2C receptor (Homo sapiens, UniProt P28335, I156V/I160V/N158S)", "EC50 [nM]": 41}
{"compound": "O=C(C1CN(c2c3c(nc4ccnn24)CCNCC3)C1)N1CCC2(CCCCC2)C1 [Example 31.48]", "target": "human 5-HT2C receptor (Homo sapiens, UniProt P28335, I156V/I160V/N158S)", "EC50 [nM]": 38}

Note to self: EC50 of CN1CCc2nc3ccnn3c(N3CC(C(=O)N4CCC(F)(F)C4)C3)c2CC1 [Example 36.30] with human 5-HT2C receptor (Homo sapiens, UniProt P28335, I156V/I160V/N158S) was 117

Note to self: EC50 of CCNC(=O)C1CN(c2c3c(nc4ccnn24)CCNCC3)C1 [Example 37.95] with human 5-HT2C receptor (Homo sapiens, UniProt P28335, I156V/I160V/N158S) was 742

Note to self: EC50 of CNC1CCN(C(=O)C2CN(c3c4c(nc5ccnn35)CCNCC4)C2)CC1 [Example 37.14] with human 5-HT2C receptor (Homo sapiens, UniProt P28335, I156V/I160V/N158S) was 1

Note to self: EC50 of CCCn1c(C2CN(c3c4c(nc5ccnn35)CCNCC4)C2)nc2ccccc21 [Example 34.35] with human 5-HT2C receptor (Homo sapiens, UniProt P28335, I156V/I160V/N158S) was 472

Note to self: EC50 of O=C(C1CN(c2c3c(nc4ccnn24)CCNCC3)C1)N1CCN(C2CC2)CC1 [Example 37.32] with human 5-HT2C receptor (Homo sapiens, UniProt P28335, I156V/I160V/N158S) was 22

Note to self: EC50 of CN1CCc2nc3ccnn3c(N3CC(C(=O)N4CCN(C5CC5)CC4)C3)c2CC1 [Example 36.24] with human 5-HT2C receptor (Homo sapiens, UniProt P28335, I156V/I160V/N158S) was 228

Note to self: EC50 of CN1CCc2nc3ccnn3c(N3CC(C(=O)NCCCC(F)(F)F)C3)c2CC1 [Example 36.47] with human 5-HT2C receptor (Homo sapiens, UniProt P28335, I156V/I160V/N158S) was 130

Note to self: EC50 of O=C(C1CN(c2c3c(nc4ccnn24)CCNCC3)C1)N1CCCC(c2ccccc2F)C1 (stereo not drawn) [Example 31.117] with human 5-HT2C receptor (Homo sapiens, UniProt P28335, I156V/I160V/N158S) was 291
